Reported RP-HPLC column retention time tR by item:
assay: Analytical RP-HPLC retention time as measure of hydrophobicity; type: physicochemical; details: chromatographic, analytical RP-HPLC, Waters Xterra MS C18 5 μm 4.6 × 150 mm; buffer A 0.1% TFA in H2O, buffer B 0.1% TFA in MeCN; used as measure of hydrophobicity
Positions of bridges follow the written chain, without caps; N, C: chain ends. Non-standard residues stand in square brackets, D forms with d. Residues, ends and D or L forms follow the SMILES beside them. *: point of attachment. Ethyl(2-palmitoyloxy) = CCCCCCCCCCCCCCCC(=O)OCC*; Ethyl(2-butanoyloxy) = CCCC(=O)OCC*; Ethyl(2-OBz) = O=C(OCC*)c1ccccc1; X1 = CCCCCCCCCCCC(=O)OCC*; X3 = CCCCCCCC(=O)OCC*; Mpa = O=C(O)CCS
readout: RP-HPLC column retention time tR (min)

1. CCCCCCCC(=O)OCCSCCC(=O)N[C@H](C(=O)N[C@@H](CO)C(=O)N[C@H]1C(=O)N[C@@H](C)C(=O)N[C@@H](CCCNC(=N)N)C(=O)N[C@@H]([C@@H](C)CC)C(=O)O[C@H]1C)[C@@H](C)CC [Compound 8c] ([Mpa](X3)IS[dT]ARI; ester 4-C) ... 18.89
2. CCCC(=O)OCCSCCC(=O)N[C@H](C(=O)N[C@@H](CO)C(=O)N[C@H]1C(=O)N[C@@H](C)C(=O)N[C@@H](CCCNC(=N)N)C(=O)N[C@@H]([C@@H](C)CC)C(=O)O[C@H]1C)[C@@H](C)CC [Compound 8a] ([Mpa](Ethyl(2-butanoyloxy))IS[dT]ARI; ester 4-C) ... 14.98
3. CCCCCCCCCCCC(=O)OCCSCCC(=O)N[C@H](C(=O)N[C@@H](CO)C(=O)N[C@H]1C(=O)N[C@@H](C)C(=O)N[C@@H](CCCNC(=N)N)C(=O)N[C@@H]([C@@H](C)CC)C(=O)O[C@H]1C)[C@@H](C)CC [Compound 8d] ([Mpa](X1)IS[dT]ARI; ester 4-C) ... 23.21
4. CC[C@H](C)[C@H](NC(=O)CCSCCOC(=O)c1ccccc1)C(=O)N[C@@H](CO)C(=O)N[C@H]1C(=O)N[C@@H](C)C(=O)N[C@@H](CCCNC(=N)N)C(=O)N[C@@H]([C@@H](C)CC)C(=O)O[C@H]1C [Compound 8f] ([Mpa](Ethyl(2-OBz))IS[dT]ARI; ester 4-C) ... 15.93
5. CCCCCCCCCCCCCCCC(=O)OCCSCCC(=O)N[C@H](C(=O)N[C@@H](CO)C(=O)N[C@H]1C(=O)N[C@@H](C)C(=O)N[C@@H](CCCNC(=N)N)C(=O)N[C@@H]([C@@H](C)CC)C(=O)O[C@H]1C)[C@@H](C)CC [Compound 8e] ([Mpa](Ethyl(2-palmitoyloxy))IS[dT]ARI; ester 4-C) ... 27.98

###

test: Analytical RP-HPLC retention time as measure of hydrophobicity; assay type: physicochemical; conditions: chromatographic, analytical RP-HPLC, Waters Xterra MS C18 5 μm 4.6 × 150 mm; buffer A 0.1% TFA in H2O, buffer B 0.1% TFA in MeCN; used as measure of hydrophobicity
Positions of bridges follow the written chain, without caps; N, C: chain ends. Non-standard residues stand in square brackets, D forms with d. Residues, ends and D or L forms follow the SMILES beside them. *: point of attachment. Lauroyl = CCCCCCCCCCCC(=O)*; X2 = CCCCCC(=O)OCC*; Mpa = O=C(O)CCS
Reported RP-HPLC column retention time tR by item:
readout: RP-HPLC column retention time tR (min)

1. CCCCCC(=O)OCCSCCC(=O)N[C@H](C(=O)N[C@@H](CO)C(=O)N[C@H]1C(=O)N[C@@H](C)C(=O)N[C@@H](CCCNC(=N)N)C(=O)N[C@@H]([C@@H](C)CC)C(=O)O[C@H]1C)[C@@H](C)CC [Compound 8b] ([Mpa](X2)IS[dT]ARI; ester 4-C) ... 16.88
2. CCCCCCCCCCCC(=O)N[C@H](C(=O)N[C@@H](CO)C(=O)N[C@H]1C(=O)N[C@@H](C)C(=O)N[C@@H](CCCNC(=N)N)C(=O)N[C@@H]([C@@H](C)CC)C(=O)O[C@H]1C)[C@@H](C)CC [Compound 3, lipobactin, reference compound] (Lauroyl-IS[dT]ARI; ester 3-C) ... 20.38

###

assay: Analytical RP-HPLC retention time as measure of hydrophobicity; type: physicochemical; details: tR of the compound minus tR of 3; same RP-HPLC C18 system
Positions of bridges follow the written chain, without caps; N, C: chain ends. Non-standard residues stand in square brackets, D forms with d. Residues, ends and D or L forms follow the SMILES beside them. *: point of attachment. Ethyl(2-butanoyloxy) = CCCC(=O)OCC*; Ethyl(2-OBz) = O=C(OCC*)c1ccccc1; Lauroyl = CCCCCCCCCCCC(=O)*; X3 = CCCCCCCC(=O)OCC*; X2 = CCCCCC(=O)OCC*; Mpa = O=C(O)CCS
Reported Δt, retention time difference to lipobactin 3 by item:
readout: Δt, retention time difference to lipobactin 3 (min)

1) CCCCCCCC(=O)OCCSCCC(=O)N[C@H](C(=O)N[C@@H](CO)C(=O)N[C@H]1C(=O)N[C@@H](C)C(=O)N[C@@H](CCCNC(=N)N)C(=O)N[C@@H]([C@@H](C)CC)C(=O)O[C@H]1C)[C@@H](C)CC [Compound 8c] ([Mpa](X3)IS[dT]ARI; ester 4-C) ... -1.5
2) CC[C@H](C)[C@H](NC(=O)CCSCCOC(=O)c1ccccc1)C(=O)N[C@@H](CO)C(=O)N[C@H]1C(=O)N[C@@H](C)C(=O)N[C@@H](CCCNC(=N)N)C(=O)N[C@@H]([C@@H](C)CC)C(=O)O[C@H]1C [Compound 8f] ([Mpa](Ethyl(2-OBz))IS[dT]ARI; ester 4-C) ... -4.5
3) CCCC(=O)OCCSCCC(=O)N[C@H](C(=O)N[C@@H](CO)C(=O)N[C@H]1C(=O)N[C@@H](C)C(=O)N[C@@H](CCCNC(=N)N)C(=O)N[C@@H]([C@@H](C)CC)C(=O)O[C@H]1C)[C@@H](C)CC [Compound 8a] ([Mpa](Ethyl(2-butanoyloxy))IS[dT]ARI; ester 4-C) ... -5.4
4) CCCCCC(=O)OCCSCCC(=O)N[C@H](C(=O)N[C@@H](CO)C(=O)N[C@H]1C(=O)N[C@@H](C)C(=O)N[C@@H](CCCNC(=N)N)C(=O)N[C@@H]([C@@H](C)CC)C(=O)O[C@H]1C)[C@@H](C)CC [Compound 8b] ([Mpa](X2)IS[dT]ARI; ester 4-C) ... -3.5
5) CCCCCCCCCCCC(=O)N[C@H](C(=O)N[C@@H](CO)C(=O)N[C@H]1C(=O)N[C@@H](C)C(=O)N[C@@H](CCCNC(=N)N)C(=O)N[C@@H]([C@@H](C)CC)C(=O)O[C@H]1C)[C@@H](C)CC [Compound 3, lipobactin, reference compound] (Lauroyl-IS[dT]ARI; ester 3-C) ... 0

###

test: Analytical RP-HPLC retention time as measure of hydrophobicity; type: physicochemical; conditions: in words
Positions of bridges follow the written chain, without caps; N, C: chain ends. Non-standard residues stand in square brackets, D forms with d. Residues, ends and D or L forms follow the SMILES beside them. *: point of attachment. Ethyl(2-palmitoyloxy) = CCCCCCCCCCCCCCCC(=O)OCC*; Ethyl(2-butanoyloxy) = CCCC(=O)OCC*; X1 = CCCCCCCCCCCC(=O)OCC*; X2 = CCCCCC(=O)OCC*; Mpa = O=C(O)CCS
readout: Hydrophobicity relative to lipobactin 3 as judged by RP-HPLC retention time

1. CCCCCCCCCCCCCCCC(=O)OCCSCCC(=O)N[C@H](C(=O)N[C@@H](CO)C(=O)N[C@H]1C(=O)N[C@@H](C)C(=O)N[C@@H](CCCNC(=N)N)C(=O)N[C@@H]([C@@H](C)CC)C(=O)O[C@H]1C)[C@@H](C)CC [Compound 8e] ([Mpa](Ethyl(2-palmitoyloxy))IS[dT]ARI; ester 4-C) ... more hydrophobic than 3
2. CCCCCC(=O)OCCSCCC(=O)N[C@H](C(=O)N[C@@H](CO)C(=O)N[C@H]1C(=O)N[C@@H](C)C(=O)N[C@@H](CCCNC(=N)N)C(=O)N[C@@H]([C@@H](C)CC)C(=O)O[C@H]1C)[C@@H](C)CC [Compound 8b] ([Mpa](X2)IS[dT]ARI; ester 4-C) ... more hydrophilic than 3
3. CCCCCCCCCCCC(=O)OCCSCCC(=O)N[C@H](C(=O)N[C@@H](CO)C(=O)N[C@H]1C(=O)N[C@@H](C)C(=O)N[C@@H](CCCNC(=N)N)C(=O)N[C@@H]([C@@H](C)CC)C(=O)O[C@H]1C)[C@@H](C)CC [Compound 8d] ([Mpa](X1)IS[dT]ARI; ester 4-C) ... more hydrophobic than 3
4. CCCC(=O)OCCSCCC(=O)N[C@H](C(=O)N[C@@H](CO)C(=O)N[C@H]1C(=O)N[C@@H](C)C(=O)N[C@@H](CCCNC(=N)N)C(=O)N[C@@H]([C@@H](C)CC)C(=O)O[C@H]1C)[C@@H](C)CC [Compound 8a] ([Mpa](Ethyl(2-butanoyloxy))IS[dT]ARI; ester 4-C) ... more hydrophilic than 3
